assay: Prodrug stability assay in bio-relevant media (FaSSIF with pancreatin), GI tract stability; format: in vitro ADME; settings: Table 1; % parent: HPLC peak area of prodrug at 5 h / 0 h, 0.5 mg/mL pancreatin in FaSSIF, 37° C.

>  <molecule>
CCCOC(=O)C(C)(C)NP(=O)(CO[C@H](C)Cn1cnc2c(N)ncnc21)OCCc1cccc(C(=O)OC(C)C)c1 (single isomer, unassigned) [Example 11A]

>  <readoutUnit>
%

>  <GI Tract stability>
88.58

$$$$
>  <molecule>
CC(C)OC(=O)CCOP(=O)(CO[C@H](C)Cn1cnc2c(N)ncnc21)NC(C)(C)C(=O)OC(C)C (single isomer, unassigned)

>  <readoutUnit>
%

>  <GI Tract stability>
100.30

$$$$
>  <molecule>
CCCOC(=O)C(C)(C)N[P@](=O)(CO[C@H](C)Cn1cnc2c(N)ncnc21)OCc1ccc(F)cc1C(=O)OC(C)C (single isomer, unassigned)

>  <readoutUnit>
%

>  <GI Tract stability>
95.0

$$$$
>  <molecule>
CCCOC(=O)C(C)(C)NP(=O)(CO[C@H](C)Cn1cnc2c(N)ncnc21)OCCC(=O)OC(C)C (single isomer, unassigned)

>  <readoutUnit>
%

>  <GI Tract stability>
99.35

$$$$
>  <molecule>
CCCOC(=O)C(C)(C)NP(=O)(CO[C@H](C)Cn1cnc2c(N)ncnc21)SCCC(=O)OC(C)C (single isomer, unassigned) [Example 12A]

>  <readoutUnit>
%

>  <GI Tract stability>
96.69

$$$$
>  <molecule>
CCCCCOC(=O)C(C)(C)NP(=O)(CO[C@H](C)Cn1cnc2c(N)ncnc21)OCCC(=O)OC(C)C (single isomer, unassigned) [Example 8B]

>  <readoutUnit>
%

>  <GI Tract stability>
99.59

$$$$
>  <molecule>
CC(C)OC(=O)C[C@H](C)OP(=O)(CO[C@H](C)Cn1cnc2c(N)ncnc21)NC(C)(C)C(=O)OC(C)C (single isomer, unassigned) [Example 10A]

>  <readoutUnit>
%

>  <GI Tract stability>
99.75

$$$$
>  <molecule>
CCCCCOC(=O)C(C)(C)NP(=O)(CO[C@H](C)Cn1cnc2c(N)ncnc21)OCCC(=O)OC(C)C (single isomer, unassigned) [Example 8A]

>  <readoutUnit>
%

>  <GI Tract stability>
92.12

$$$$
>  <molecule>
CCCOC(=O)C(C)(C)NP(=O)(CO[C@H](C)Cn1cnc2c(N)ncnc21)SCCC(=O)OC(C)C (single isomer, unassigned) [Example 12B]

>  <readoutUnit>
%

>  <GI Tract stability>
54.83

$$$$
>  <molecule>
CCCOC(=O)C(C)(C)NP(=O)(CO[C@H](C)Cn1cnc2c(N)ncnc21)OCc1cccc(C(=O)OC(C)C)c1 (single isomer, unassigned) [Example 14A]

>  <readoutUnit>
%

>  <GI Tract stability>
96.71

$$$$
>  <molecule>
CC(C)OC(=O)C(C)(C)COP(=O)(CO[C@H](C)Cn1cnc2c(N)ncnc21)NC(C)(C)C(=O)OC(C)C (single isomer, unassigned)

>  <readoutUnit>
%

>  <GI Tract stability>
98.18

$$$$
>  <molecule>
CCCSC(=O)C(C)(C)NP(=O)(CO[C@H](C)Cn1cnc2c(N)ncnc21)OCCC(=O)OC(C)C (single isomer, unassigned) [Example 13A]

>  <readoutUnit>
%

>  <GI Tract stability>
76.99

$$$$
>  <molecule>
CCOC(=O)C1(CCOP(=O)(CO[C@H](C)Cn2cnc3c(N)ncnc32)NC(C)(C)C(=O)OC(C)C)CC1 (single isomer, unassigned)

>  <readoutUnit>
%

>  <GI Tract stability>
99.72

$$$$

Values from patent US10519159B2
